These entries and their values trace back to patent US9522920B2.

The entries below come with measured pIC50 values attached.
- experimental.system: BRD4(BD1) (Homo sapiens)
- Construct: His; made in house
- procedure.text: BRD4 AlphaLisa binding assay (Alphascreen)
- condition.details: Table 6; BRD4(BD1) 30 nM, H4-tetraacetyl peptide 200 nM; read-out: BRD4 Alphascreen IC50
pIC50: −log10 of the molar value.

Record excerpt, results attached:
Cc1noc2c1-c1sc(C)c(C)c1C(c1ccn(C)n1)=NC2CC(N)=O (stereo not shown) | > 6.30
Cc1noc2c1-c1ccn(C)c(=O)c1C(c1ccc(Cl)cc1)=NC2 | < 6.00
CCNC(=O)C[C@H]1N=C(c2ccc(Cl)cc2)c2ccccc2-c2c1noc2C | < 6.00

Reported pIC50 (BRD4(BD1) (Homo sapiens)) for entry "Cc1noc2c1-c1ccccc1C(c1ccc(C#N)cc1)=N[C@H]2CC(N)=O" is > 6.30

Measured pIC50 (BRD4(BD1) (Homo sapiens)), entry Cc1noc2c1-c1sc(C)c(C)c1C(c1ccc(=O)n(C)c1)=NC2CC(N)=O (stereo not shown) : > 6.30

// returns pIC50 for Cc1noc2c1-c1sc(C)c(C)c1C(c1ccc(C#N)cc1)=NC2CC(N)=O (stereo not shown) with BRD4(BD1) (Homo sapiens); value = > 6.30

The recorded pIC50 with BRD4(BD1) (Homo sapiens) for Cc1noc2c1-c1sc(C)c(C)c1C(N1CCOCC1)=NC2CC(N)=O (stereo not shown) was < 6.00

Measured pIC50 for this entry Cc1noc2c1-c1sc(C)c(C)c1C(c1cccnc1)=NC2CC(N)=O (stereo not shown) on BRD4(BD1) (Homo sapiens): > 6.30

Readout pIC50 for CCNC(=O)CC1N=C(c2ccc(C#N)cc2)c2c(sc(C)c2C)-c2c(C)noc21 (stereo not shown) , test system BRD4(BD1) (Homo sapiens), was > 6.30

Summary: Cc1noc2c1-c1sc(C)c(C)c1C(C1CC1)=NC2CC(N)=O (stereo not shown) , BRD4(BD1) (Homo sapiens), pIC50 = < 6.00
